So I've got a bunch of binders here, and I need their binding signal values.
biological target: ZFPm2 six-finger zinc finger protein (Sp1C framework) (artificial); experiment: ELISA, 15.5 ug/ml protein, non-target; details: tags: MBP fusion (pMAL-C2), E. coli; label: 5'-biotin; hairpin
Sequence (chain, as listed by the source): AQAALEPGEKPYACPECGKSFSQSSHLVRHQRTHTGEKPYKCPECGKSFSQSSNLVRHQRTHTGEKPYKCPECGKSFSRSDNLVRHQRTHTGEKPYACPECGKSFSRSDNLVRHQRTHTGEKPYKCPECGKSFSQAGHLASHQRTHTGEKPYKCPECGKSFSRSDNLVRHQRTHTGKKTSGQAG
Provide a numeric answer, followed by its unit.

Q: Reported binding signal, binder GGGACACCCCCAACCCCGCCGGGTTTTCCCGGCGGGGTTGGGGGTGTCCC (dsDNA) [c5c1-g] : ____
A: 5 fold over no oligo

Q: Reported binding signal, binder GGCTCTGCTCATCCCACTACGGGTTTTCCCGTAGTGGGATGAGCAGAGCC (dsDNA) [c5p3-g] : ____
A: 3 fold over no oligo

Q: Reported binding signal, binder GGTGCGGCGACTGCAGCAGCGGGTTTTCCCGCTGCTGCAGTCGCCGCACC (dsDNA) [NRI-2] : ____
A: 2 fold over no oligo

Q: Reported binding signal, binder GGGGCAGCCCCCACGGCGCCGGGTTTTCCCGGCGCCGTGGGGGCTGCCCC (dsDNA) [hHD-II] : ____
A: 2 fold over no oligo

Q: Reported binding signal, binder GGGGCCCCGCCTCCGCCGGCGGGTTTTCCCGCCGGCGGAGGCGGGGCCCC (dsDNA) [hHD-I] : ____
A: 3 fold over no oligo

Q: Reported binding signal, binder GGACCCACCGCGTCCCCTCCGGGTTTTCCCGGAGGGGACGCGGTGGGTCC (dsDNA) [B3c2] : ____
A: 4 fold over no oligo

Q: Reported binding signal, binder GGTTCTACCCCTCCCACCGCGGGTTTTCCCGCGGTGGGAGGGGTAGAACC (dsDNA) [NRI-1] : ____
A: 7 fold over no oligo

Q: Reported binding signal, binder GGCACTGCGGCTCCGGCCCCGGGTTTTCCCGGGGCCGGAGCCGCAGTGCC (dsDNA) [e2c-g] : ____
A: 2 fold over no oligo
